# key: entry, value: TGI
system: MDA-MB-231 breast; assay: NCI tumour cell line growth inhibition, 48 h
reported_endpoint: TGI

[[record]]
compound = "CC(=O)n1c2ccc(Br)cc2c2nc3ccccc3nc21"
reported_endpoint = "TGI"
value_measured = "> 100 µM"

[[record]]
compound = "CN(C)CCCC1(c2ccc(F)cc2)OCc2cc(-c3csc4ccccc34)ccc21 (configuration not stated)"
reported_endpoint = "TGI"
value_measured = "2.68 µM"

[[record]]
compound = "NC(CCC(=O)O)C(=O)NC(Cc1ccc(N(CCCl)CCCl)cc1)C(=O)O (configuration not stated)"
reported_endpoint = "TGI"
value_measured = "> 100 µM"

[[record]]
compound = "COc1cc(/C=C/c2cc(/C=C/c3ccc(O)c(OC)c3)n(C(=O)Nc3ccc(C)cc3)n2)ccc1O"
reported_endpoint = "TGI"
value_measured = "23 µM"

[[record]]
compound = "N/C(CCSCCSCC/C(N)=N\\O)=N\\O"
reported_endpoint = "TGI"
value_measured = "> 100 µM"

[[record]]
compound = "COc1cc2c(cc1OCCCOc1cc3c(cc1OC)C(=O)N1CCC[C@H]1C(=O)N3)N=C[C@@H]1CCCN1C2=O"
reported_endpoint = "TGI"
value_measured = "44 µM"

[[record]]
compound = "COC(=O)C1=C(OC)C(=P2(c3ccccc3)CC(c3ccccc3)=C2c2ccccc2)C(C(=O)OC)=C1C(=O)OC (configuration not stated)"
reported_endpoint = "TGI"
value_measured = "> 100 µM"


====

tested on: UO-31 renal; experiment: NCI tumour cell line growth inhibition, 48 h
reported_endpoint: GI50

[[record]]
compound = "CN(C)c1ccc(/C=N/N=C(\\C#N)[S][Sn]([Cl])([c]2ccccc2)[c]2ccccc2)cc1"
reported_endpoint = "GI50"
value_measured = "1.58 µM"

[[record]]
compound = "Oc1c(Br)cc(Cl)cc1C(c1cc(Cl)cc(Br)c1O)C(Cl)(Cl)Cl"
reported_endpoint = "GI50"
value_measured = "2.81 µM"

[[record]]
compound = "COc1cc2c(cc1OCCN1CCN(CCN3C(=O)c4cccc5cccc(c45)C3=O)CC1)N=C[C@@H]1CCCN1C2=O"
reported_endpoint = "GI50"
value_measured = "18.5 µM"

[[record]]
compound = "COc1cc(/C=C/C(=O)c2nc3cc(F)ccc3nc2C)cc(OC)c1OC"
reported_endpoint = "GI50"
value_measured = "7.07 µM"

[[record]]
compound = "O=C1NC(=O)N(S(=O)(=O)c2cc(C(=O)Nc3ccc(Cl)cc3)c(Cl)cc2S)S(=O)(=O)N1"
reported_endpoint = "GI50"
value_measured = "19.6 µM"

[[record]]
compound = "COc1cc2c(cc1C)NC(=O)/C2=C\\c1ccc(Oc2ccccc2)cc1"
reported_endpoint = "GI50"
value_measured = "14.8 µM"

[[record]]
compound = "O=C(CCN1CCOCC1)Nc1ccc(Cn2nnc3c2C(=O)c2nnn(Cc4ccc(NC(=O)CCN5CCOCC5)cc4)c2C3=O)cc1"
reported_endpoint = "GI50"
value_measured = "> 100 µM"

[[record]]
compound = "CN1CCN(C(=O)/C=C/c2ccc([N+](=O)[O-])o2)CC1"
reported_endpoint = "GI50"
value_measured = "13.4 µM"

[[record]]
compound = "CNCc1cccc2c1OCCOCCOCCNS(=O)(=O)c1ccc(cc1)-c1cnc(N)c(n1)C(=O)N2"
reported_endpoint = "GI50"
value_measured = "9.82 µM"

[[record]]
compound = "CC(C)(C)OC(=O)CC(NC(=O)OCc1ccccc1)NC(=O)OC(C)(C)C (stereo unspecified)"
reported_endpoint = "GI50"
value_measured = "27 µg/mL"

[[record]]
compound = "O=S(=O)(Nc1ccccc1)c1ccc(C2CC3(Cl)C(Cl)=C(Cl)C2(Cl)C3(Cl)Cl)cc1 (stereo unspecified)"
reported_endpoint = "GI50"
value_measured = "2.09 µM"

[[record]]
compound = "C=CCN(CC=C)Cc1c[nH]c2ccccc12"
reported_endpoint = "GI50"
value_measured = "35.2 µM"

[[record]]
compound = "COc1ccc([C@@H]2[C@@H](Oc3ccccc3)C(=O)N2c2cc(OC)c(OC)c(OC)c2)cc1F"
reported_endpoint = "GI50"
value_measured = "0.562 µM"

[[record]]
compound = "CC(=O)O[C@H]([C@H](OC(C)=O)[C@H](C)OC(C)=O)[C@@H](/C=C/[C@H]1CC=CC(=O)O1)OC(C)=O"
reported_endpoint = "GI50"
value_measured = "> 100 µM"

[[record]]
compound = "CCOC(=O)C#Cc1c(C(=O)OCC)nnn1[C@@H]1O[C@H](COC)[C@@H](OC)[C@H]1OC"
reported_endpoint = "GI50"
value_measured = "1.88 µM"

[[record]]
compound = "O=C(/C=C(\\[O-])c1ccccc1)CCCCCCC(=O)/C=C(\\[O-])c1ccccc1.O=C(/C=C(\\[O-])c1ccccc1)CCCCCCC(=O)/C=C(\\[O-])c1ccccc1.O=C(/C=C(\\[O-])c1ccccc1)CCCCCCC(=O)/C=C(\\[O-])c1ccccc1.[Y+3].[Y+3]"
reported_endpoint = "GI50"
value_measured = "> 50 µM"


====

test system: SF-539 CNS; experiment: NCI tumour cell line growth inhibition, 48 h; in the data active means GI50 below about 0.43 µM; inactive means the rest
Classes used: label 1 (active), label 0 (inactive)

[[record]]
chem_smiles = "CC(=O)O[C@H]([C@H](OC(C)=O)[C@H](C)OC(C)=O)[C@@H](/C=C/[C@H]1CC=CC(=O)O1)OC(C)=O"
qualitative_label = "label 0"

[[record]]
chem_smiles = "COc1ccccc1CNCCCN1C(=O)c2ccc3c4c(ccc(c24)C1=O)C(=O)N(CCCNCc1ccccc1OC)C3=O"
qualitative_label = "label 1"

[[record]]
chem_smiles = "CN(C)c1ccc(/C=N/N=C(\\C#N)[S][Sn]([Cl])([c]2ccccc2)[c]2ccccc2)cc1"
qualitative_label = "label 0"

[[record]]
chem_smiles = "COc1ccc(Cn2c(Br)c3c(c2-c2cc(OC)c(OC)c(OC)c2)CCc2sc(N)nc2-3)cc1"
qualitative_label = "label 0"

[[record]]
chem_smiles = "Cn1cc(-c2ccc3c(c2)ncn3-c2cc(NS(=O)(=O)C3CC3)cc(-c3ccc(F)cc3F)c2)cn1"
qualitative_label = "label 0"

[[record]]
chem_smiles = "O=C1NC(=NCc2cccs2)O/C1=C\\c1ccc2ncccc2c1"
qualitative_label = "label 0"

[[record]]
chem_smiles = "CCN1CCN(CC(=O)Nc2nc3ccc(NCc4ccc(Br)cc4)cc3s2)CC1"
qualitative_label = "label 0"

[[record]]
chem_smiles = "CN(c1ccccc1)c1c2ccccc2nc2[nH]c3ccccc3c12"
qualitative_label = "label 0"

[[record]]
chem_smiles = "COc1cc2c(cc1C)NC(=O)/C2=C\\c1ccc(Oc2ccccc2)cc1"
qualitative_label = "label 0"


====

system: ACHN renal; test: NCI tumour cell line growth inhibition, 48 h
reported_endpoint: TGI

[[record]]
molecule = "CCOC(OCC)(OCC)C(Br)CC (centres undefined)"
value_measured = "> 100 µM"

[[record]]
molecule = "CC[C@@H]1CC[C@@H]2[C@H](CC[C@]3(C)[C@@H](O[N+](=O)[O-])CC[C@@H]23)[C@H]1C(C)=O"
value_measured = "> 100 µM"

[[record]]
molecule = "COc1ccccc1CNCCCN1C(=O)c2ccc3c4c(ccc(c24)C1=O)C(=O)N(CCCNCc1ccccc1OC)C3=O"
value_measured = "0.555 µM"

[[record]]
molecule = "COc1ccc(OC/C(N)=N/NC(=O)c2ccncc2)cc1"
value_measured = "> 100 µM"

[[record]]
molecule = "CN(C)[C@@H]1C(=O)C(C(=O)NCc2nc3[nH]cnc(=S)c3[nH]2)=C(O)[C@@]2(O)C(=O)C3=C(O)c4c(O)cccc4[C@@](C)(O)[C@H]3C[C@@H]12"
value_measured = "> 100 µM"

[[record]]
molecule = "O=C1C[C@@H]2OCC=C3C[N+]4([O-])CC[C@]56c7ccccc7N1[C@H]5[C@H]2[C@H]3C[C@@H]64 (some centres undefined)"
value_measured = "> 100 µM"

[[record]]
molecule = "CC1=C(C(=O)NNC(=O)C[N+](C)(C)C)CC(C(=O)NNC(=O)C[N+](C)(C)C)=C(C)N1"
value_measured = "> 100 µM"

[[record]]
molecule = "O=C1[C@H](Cc2ccc(O)cc2)N2C(=O)CCN(C(=O)NCc3ccccc3)[C@H]2CN1Cc1cccc2ccccc12"
value_measured = "57.7 µM"

[[record]]
molecule = "COc1ccc(C(C)Nc2cc(OC)c(OC)c(OC)c2)cc1 (centres undefined)"
value_measured = "> 100 µM"

[[record]]
molecule = "CCOC(=O)C1(C)CCC(C(=O)OC)C1=O (centres undefined)"
value_measured = "> 100 µM"

[[record]]
molecule = "COc1ccc(Cn2c(Br)c3c(c2-c2cc(OC)c(OC)c(OC)c2)CCc2sc(N)nc2-3)cc1"
value_measured = "25.7 µM"

[[record]]
molecule = "CN(Cc1cccc2ccsc12)/N=C\\c1ccc(Cl)cc1"
value_measured = "> 100 µM"

[[record]]
molecule = "N#CCC(=O)N/N=C\\C(O)C(O)C(O)C(O)CO (centres undefined)"
value_measured = "> 100 µM"

[[record]]
molecule = "O=C(CCN1CCOCC1)Nc1ccc(Cn2nnc3c2C(=O)c2nnn(Cc4ccc(NC(=O)CCN5CCOCC5)cc4)c2C3=O)cc1"
value_measured = "> 100 µM"

[[record]]
molecule = "N#Cc1c(CC(=O)O)cc(=O)n2c1[nH]c1ccccc12"
value_measured = "> 100 µM"

[[record]]
molecule = "COC(=O)c1ccc(CCC2=CC(=O)C=CC2=O)cc1"
value_measured = "20.4 µM"

[[record]]
molecule = "CCCCCCCCCCCCCCCCOP(=O)([O-])OCC[N+](C)(C)C1CC(C)(C)N(O)C(C)(C)C1"
value_measured = "> 100 µM"

[[record]]
molecule = "COc1ccc(-c2c(Nc3ccccn3)nc3c(C4=CCCCC4)c(-c4ccccc4)[nH]n3c2=O)cc1"
value_measured = "24.9 µM"

[[record]]
molecule = "O=C1NC(c2ccccc2Cl)Nc2ccccc21 (centres undefined)"
value_measured = "> 100 µM"

